Hello, the source for this data is ChEMBL document CHEMBL3988442, in case you need it.

study-system: Proteasome subunit beta (Trypanosoma cruzi) (UniProt O96673)
Sequence (O96673 as listed by the source): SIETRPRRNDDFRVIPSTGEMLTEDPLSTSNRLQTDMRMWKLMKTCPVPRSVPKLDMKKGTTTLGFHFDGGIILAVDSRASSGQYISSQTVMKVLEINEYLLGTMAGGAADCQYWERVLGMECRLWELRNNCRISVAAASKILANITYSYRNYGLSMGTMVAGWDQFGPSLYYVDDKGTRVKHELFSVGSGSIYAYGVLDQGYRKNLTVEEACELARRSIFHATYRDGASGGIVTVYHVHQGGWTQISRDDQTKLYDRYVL
assay-name: Trypanosoma cruzi proteasome chymotrypsin-like activity (TcProtChymo) assay. Further: in the data most compounds retested in dose-response had high values.
Format: functional
Design: scale not given: direction of the effect not stated beside the values
assay-conditions: 9.37 µM
value-type: Percent Effect (%)
Lab book: enter the figure in %, no units written.

Here's what some known entries look like.
compound	Percent Effect, %
Cc1cc(C[S+]([O-])CC(=O)NCC(C)C)no1 (stereo unspecified)	0.676
COCCN1CCN(C(=O)c2ccncc2F)Cc2cccnc21	20.3
CCc1nnc2n1CCN(Cc1csc(-c3cnn(C)c3)n1)C2	18.6
CNC(=O)[C@@]12CCO[C@@H]1CCN(S(=O)(=O)c1cccc(C)c1)C2	9.96
CCN(CCn1cccn1)Cc1nc(-c2cccs2)oc1C	2.63

Attention now shifts to the item below.
stdin: Return reported Percent Effect; argument: Cc1csc(NC(=O)CN2CCC(c3ccnn3CCO)CC2)n1
stdout: 9.42

====

Species: Homo sapiens
assay-name: To identify inhibition of the IFN signalling (Jak-Stat) pathway via expression of an eGFP reporter gene under the control of an IFN-stimulated response element (ISRE) containing MxA promoter.
Format: functional
Set-up: scale not given: direction of the effect not stated beside the values
assay-conditions: 30 µM
value-type: Percent Effect (%)
Lab book: enter the figure in %, no units written.

Here's what some known entries look like.
molecule	Percent Effect (%)
Cc1ccc(NC2CCN(C(=O)c3cccn3C)CC2)nn1	26.6
Cc1nccn1C1CCCN(C(=O)c2ccc(N(C)C)nc2)C1 (stereo not given)	7.13
CCSCCC(=O)Nc1ncn(Cc2cccnc2)n1	9.04
CC1c2ncc(Cn3cncn3)n2CCN1C1CCOCC1 (stereo not given)	2.92

Attention now shifts to the item below.
stdin: Return reported Percent Effect; argument: CN1CCN(C(=O)c2cnc3c(cnn3C3CCCC3)c2)CC1
stdout: -7.07

====

study-system: Ubiquitin-activating enzyme e1, putative (Leishmania donovani (strain BPK282A1)) (UniProt E9BSI1)
Sequence (whole entry): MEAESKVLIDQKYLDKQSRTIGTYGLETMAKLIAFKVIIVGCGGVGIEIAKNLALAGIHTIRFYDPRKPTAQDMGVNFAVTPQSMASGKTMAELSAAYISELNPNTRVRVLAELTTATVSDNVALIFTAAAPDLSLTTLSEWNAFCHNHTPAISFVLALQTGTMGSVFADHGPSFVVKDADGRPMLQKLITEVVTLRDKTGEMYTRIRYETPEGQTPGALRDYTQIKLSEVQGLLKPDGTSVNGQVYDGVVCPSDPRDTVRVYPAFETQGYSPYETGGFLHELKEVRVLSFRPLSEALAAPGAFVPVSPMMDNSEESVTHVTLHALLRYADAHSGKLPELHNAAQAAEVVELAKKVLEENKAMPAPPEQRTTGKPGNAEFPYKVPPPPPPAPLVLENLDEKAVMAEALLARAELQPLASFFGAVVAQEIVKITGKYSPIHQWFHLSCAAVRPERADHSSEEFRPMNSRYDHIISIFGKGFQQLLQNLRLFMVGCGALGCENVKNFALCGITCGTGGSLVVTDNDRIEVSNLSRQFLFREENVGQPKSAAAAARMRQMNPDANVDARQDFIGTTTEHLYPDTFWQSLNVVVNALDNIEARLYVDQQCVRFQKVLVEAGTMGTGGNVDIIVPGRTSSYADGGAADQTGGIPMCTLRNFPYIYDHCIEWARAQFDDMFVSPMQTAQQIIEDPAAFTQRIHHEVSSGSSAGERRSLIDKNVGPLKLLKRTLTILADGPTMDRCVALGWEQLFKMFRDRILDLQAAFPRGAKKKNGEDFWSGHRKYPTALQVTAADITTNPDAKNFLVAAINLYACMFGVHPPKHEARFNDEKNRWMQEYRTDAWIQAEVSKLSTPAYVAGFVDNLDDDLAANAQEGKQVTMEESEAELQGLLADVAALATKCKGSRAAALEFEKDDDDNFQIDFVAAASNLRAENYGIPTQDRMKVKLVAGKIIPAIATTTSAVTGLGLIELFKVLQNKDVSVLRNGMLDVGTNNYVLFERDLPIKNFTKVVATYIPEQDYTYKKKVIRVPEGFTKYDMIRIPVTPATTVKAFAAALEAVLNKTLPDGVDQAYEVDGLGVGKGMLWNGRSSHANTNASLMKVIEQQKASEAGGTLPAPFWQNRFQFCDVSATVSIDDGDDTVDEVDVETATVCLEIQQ
assay-name: Leishmania donovani Ubiquitin Activating Enzyme (LdE1)
Type: functional
Design: scale not given: direction of the effect not stated beside the values
assay-conditions: 30 µM
Potency and affinity values are given separately.
value-type: Percent Effect
Report the figure along with its unit, number first.

Here's what some known entries look like.
compound	observed-value
O=C(NCCCn1cccn1)C1(c2ccc(F)cc2)CC1	16.4%
Cc1noc(C(C)N2CCN(CC(=O)N3CCOCC3)CC2)n1 (stereo unspecified)	10.5%

stdin: Return reported Percent Effect; argument: Cc1nc(N2CCCC2)nc2c1CCN(C(=O)CC1CC1)CC2
stdout: 20%

stdin: Next up: CCOCCn1c(=O)[nH]c2cc(C(=O)N(C)CCc3cn[nH]c3)ccc21
stdout: 16.2%

stdin: Next up: CCc1ccc(NC(=O)c2cnc(N3CCN(C)CC3)nc2C)cc1
stdout: 20.8%

stdin: Next up: COc1cc(CN2CCN(c3cccc(OC)c3)C(=O)C2)cc(OC)c1
stdout: 1.39%

stdin: Next up: Cc1nc(C)n(CC2CCCCN2CC(=O)Nc2ccncc2)n1 (stereo unspecified)
stdout: 23.4%

stdin: Next up: CC(C)NC(=O)[C@@H]1C[C@H](N)CN1C(=O)c1cc2ccccc2[nH]c1=O
stdout: 20.8%
